run_description: In vitro permeation experiment of FP drug-in-adhesive patches in two-chamber diffusion cells
Format: in vitro ADME, rabbit
measurement_conditions: permeant S-FP; patch 5% drug (w/w); enhancer equimolar to 5% 4-TER
Criterion: ER (Q24h with enhancer/Q24h without enhancer) for S-FP strictly under 3. Met: satisfied. Not met: not satisfied.

Examples with answers:
{"compound": "CCCCCCCCCCCCCC(=O)OC1(C(C)C)CC=C(C)CC1 (stereo not drawn) [d-4-T-C14]", "class_name": "not satisfied"}
{"compound": "CCCCCCCCC=CCCCCCCCC(=O)OC1(C(C)C)CC=C(C)CC1 (stereo not drawn) [d-4-T-dC18]", "class_name": "not satisfied"}
{"compound": "CCCCCCC(=O)OC1(C(C)C)CC=C(C)CC1 (stereo not drawn) [d-4-T-C7]", "class_name": "satisfied"}
{"compound": "CC1=CC[C@@](O)(C(C)C)CC1 [l-4-TER, l-4-terpineol, reference compound]", "class_name": "satisfied"}
{"compound": "CCCCCCCCCCCCCC(=O)OC1(C(C)C)CC=C(C)CC1 (stereo not drawn) [l-4-T-C14]", "class_name": "satisfied"}

API: query returns whether the compound falls strictly under 3 in ER (Q24h with enhancer/Q24h without enhancer) for S-FP. Query: CCCCCCC(=O)OC1(C(C)C)CC=C(C)CC1 (stereo not drawn) [l-4-T-C7]
satisfied

API: query returns whether the compound falls strictly under 3 in ER (Q24h with enhancer/Q24h without enhancer) for S-FP. Query: CCCCCCCCC=CCCCCCCCC(=O)OC1(C(C)C)CC=C(C)CC1 (stereo not drawn) [l-4-T-dC18]
not satisfied
